Target Or Test System: T1, Recombinant Human DLL4 (R&D Systems Cat#1506-D4/CF) (human, UniProt Q9NR61 27-524)
T1 construct: Bought recombinant protein; also called delta-like protein 4; rHuman DLL4
Assay Comment: ECL (MSD) multispot binding assay, DLL4 spotted on plate, Fab in solution

Binder	Signal/Blank
Fab VH1-46_IGHD6-6*01_IGHJ1*01 S102A/S103P/S104F (APF) & L6_IGKJ1*01 S30T (Fab, V domains shown, Tested as a Fab; Expressed in E. coli from Plasmid A (CH1 with His6 and Flag tags) and Plasmid C (kappa CL); also called APF & S30T) VH: QVQLVQSGAEVKKPGASVKVSCKASGYTFTSYYMHWVRQAPGQGLEWMGIINPSGGSTSYAQKFQGRVTMTRDTSTSTVYMELSSLRSEDTAVYYCAREEYAPFSAEYFQHWGQGTLVTVSS VL: EIVLTQSPATLSLSPGERATLSCRASQSVTSYLAWYQQKPGQAPRLLIYDASNRATGIPARFSGSGSGTDFTLTISSLEPEDFAVYYCQQRSNWPPWTFGQGTKVEIKR	4.9
Fab VH1-46_IGHD6-6*01_IGHJ1*01 S102A/S103P/S104F/H111F (APFF) & L6_IGKJ1*01 S28V (Fab, V domains shown, Tested as a Fab; Expressed in E. coli from Plasmid A (CH1 with His6 and Flag tags) and Plasmid C (kappa CL); also called APFF & S28V) VH: QVQLVQSGAEVKKPGASVKVSCKASGYTFTSYYMHWVRQAPGQGLEWMGIINPSGGSTSYAQKFQGRVTMTRDTSTSTVYMELSSLRSEDTAVYYCAREEYAPFSAEYFQFWGQGTLVTVSS VL: EIVLTQSPATLSLSPGERATLSCRASQVVSSYLAWYQQKPGQAPRLLIYDASNRATGIPARFSGSGSGTDFTLTISSLEPEDFAVYYCQQRSNWPPWTFGQGTKVEIKR	351
Fab VH1-46_IGHD6-6*01_IGHJ1*01 S102A/S103P/S104F (APF) & L6_IGKJ1*01 S30R (Fab, V domains shown, Tested as a Fab; Expressed in E. coli from Plasmid A (CH1 with His6 and Flag tags) and Plasmid C (kappa CL); also called APF & S30R) VH: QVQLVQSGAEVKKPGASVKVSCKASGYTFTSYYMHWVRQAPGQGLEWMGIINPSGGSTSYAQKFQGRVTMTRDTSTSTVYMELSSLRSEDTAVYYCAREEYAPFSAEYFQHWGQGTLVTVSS VL: EIVLTQSPATLSLSPGERATLSCRASQSVRSYLAWYQQKPGQAPRLLIYDASNRATGIPARFSGSGSGTDFTLTISSLEPEDFAVYYCQQRSNWPPWTFGQGTKVEIKR	7.8
Fab VH1-46_IGHD6-6*01_IGHJ1*01 S102A/S103P/S104F (APF) & L6_IGKJ1*01 Y32S (Fab, V domains shown, Tested as a Fab; Expressed in E. coli from Plasmid A (CH1 with His6 and Flag tags) and Plasmid C (kappa CL); also called APF & Y32S) VH: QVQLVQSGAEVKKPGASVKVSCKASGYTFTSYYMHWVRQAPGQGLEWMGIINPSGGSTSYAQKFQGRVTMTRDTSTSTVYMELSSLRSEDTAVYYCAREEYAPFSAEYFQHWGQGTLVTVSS VL: EIVLTQSPATLSLSPGERATLSCRASQSVSSSLAWYQQKPGQAPRLLIYDASNRATGIPARFSGSGSGTDFTLTISSLEPEDFAVYYCQQRSNWPPWTFGQGTKVEIKR	4.9
Fab VH1-46_IGHD6-6*01_IGHJ1*01 S102A/S103P/S104F/H111F (APFF) & L6_IGKJ1*01 S28K (Fab, V domains shown, Tested as a Fab; Expressed in E. coli from Plasmid A (CH1 with His6 and Flag tags) and Plasmid C (kappa CL); also called APFF & S28K) VH: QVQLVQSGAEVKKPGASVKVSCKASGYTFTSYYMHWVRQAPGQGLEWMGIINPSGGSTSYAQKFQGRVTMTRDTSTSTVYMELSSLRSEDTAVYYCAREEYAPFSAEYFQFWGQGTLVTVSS VL: EIVLTQSPATLSLSPGERATLSCRASQKVSSYLAWYQQKPGQAPRLLIYDASNRATGIPARFSGSGSGTDFTLTISSLEPEDFAVYYCQQRSNWPPWTFGQGTKVEIKR	314

Values were extracted from patent US20120316071A1.
